- method: NFAT Signaling Pathway (AID 444);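 note: carbachol stimulus at about its EC50 of 1 µM final; % is set by controls: 0 for no effect and ±100 for the full control effect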
- condition: Jurkat NFAT-bla M1, carbachol, beta-lactamase ratio, 5 h; at 7.69 µM (top of the series) unless noted
Records with an inconclusive call do not appear. Calls of active or inactive are those of the source. Calls come from the whole dose curve; as a rule, active = well fitted curve in either direction with a large enough effect (not every such curve was filed as active); inconclusive = small, poorly fitted or top-dose-only effect, or another doubt; inactive = flat fitted curve, though single readings scatter.

| smi | activity change, negative = inhibition |
| --- | --- |
| CN(C)C(=O)c1ccc(-c2nc(Nc3ccncc3)c3ccccc3n2)cc1 | -7.95% (inactive) |
| O=C(O)[C@@H](O)[C@@H](O)[C@H](O)C(=O)CO | -10.1% (inactive) |
| N#CCCn1c(=O)c(-c2cc(F)cc(F)c2)nc2cnc(Oc3cccc(Cl)c3)nc21 | -4.95% (inactive) |
| N[C@@H](C(=O)O)[C@H](O)C(=O)O | -3.19% [at 38 µM] (inactive) |
| OC[C@@H]1O[C@H](O)[C@@H](Cl)[C@H](O)[C@@H]1O | 4.5% [at 38 µM] (inactive) |
| O=C(O)c1ccc(/C=N\N=C2c3ccccc3-c3ccccc32)cc1 | -25.2% (inactive) |
| O=C(O)CCCSc1nc2ccccc2s1 | -19.5% (inactive) |
| NC(N)=N/N=C(\c1ccc(Cl)cc1)C1CC1 | -17.9% (inactive) |
| O=C(O)c1ccccc1-c1ccccc1C(=O)c1ccccc1 | 5.49% (inactive) |
| NC(N)=NNC(=O)C(=O)O | 4.61% (inactive) |
| C[N+](C)(C)c1ccc([C@H](N)C(=O)O)cc1 | -21.6% (inactive) |
| N[C@@H](Cc1c[nH]c2ccc([N+](=O)[O-])cc12)C(=O)O | -4.18% (inactive) |
| N[C@H](Cc1ccc(O)c(I)c1)C(=O)O | 8.86% [at 38 µM] (inactive) |
| Cc1cc2ccc(OC(=O)c3ccc(N=C(N)N)cc3)cc2oc1=O | -22.4% (inactive) |
| O=C(O)CCSc1ncnc2nc[nH]c12 | 1.77% (inactive) |
| CC(C)(C)COS(=O)OCC(C)(C)C | 3.4% (inactive) |
| Cn1c(=O)c2[nH]c(CCCc3ccc([N+](=O)[O-])cc3)nc2n(C)c1=O | -1.84% (inactive) |
| O=C(O)CSc1ccc(N=C=S)cc1 | 27.9% (inactive) |
| c1ccc2c(c1)c1ccccc1n2Cn1c2ccccc2c2ccccc21 | -5.02% (inactive) |
| O=C(CON1C(=O)c2ccccc2C1=O)c1ccccc1 | 4.1% (inactive) |
| N#CCCn1c(=O)c(-c2cccc(C#N)c2)nc2cnc(Oc3ccccc3)nc21 | -7.09% (inactive) |
| CCc1cccc2c3c([nH]c12)[C@](CC)(CC(=O)O)OCC3 | -5.71% [at 38 µM] (inactive) |
| CN1[C@@H](c2ccccc2)CC(=NO)C[C@H]1c1ccccc1 | -20.1% (inactive) |
| Cc1cc(Cl)ccc1OCC(=O)Oc1c(Cl)c(Cl)c(Cl)c(Cl)c1Cl | -13.6% (inactive) |
| CN(C)CCNCCN | 16.1% (inactive) |
